Values from patent US20240018153A1

- target-or-test-system: FGFR4 (Homo sapiens (Human))
- Sequence (P22455 22-802): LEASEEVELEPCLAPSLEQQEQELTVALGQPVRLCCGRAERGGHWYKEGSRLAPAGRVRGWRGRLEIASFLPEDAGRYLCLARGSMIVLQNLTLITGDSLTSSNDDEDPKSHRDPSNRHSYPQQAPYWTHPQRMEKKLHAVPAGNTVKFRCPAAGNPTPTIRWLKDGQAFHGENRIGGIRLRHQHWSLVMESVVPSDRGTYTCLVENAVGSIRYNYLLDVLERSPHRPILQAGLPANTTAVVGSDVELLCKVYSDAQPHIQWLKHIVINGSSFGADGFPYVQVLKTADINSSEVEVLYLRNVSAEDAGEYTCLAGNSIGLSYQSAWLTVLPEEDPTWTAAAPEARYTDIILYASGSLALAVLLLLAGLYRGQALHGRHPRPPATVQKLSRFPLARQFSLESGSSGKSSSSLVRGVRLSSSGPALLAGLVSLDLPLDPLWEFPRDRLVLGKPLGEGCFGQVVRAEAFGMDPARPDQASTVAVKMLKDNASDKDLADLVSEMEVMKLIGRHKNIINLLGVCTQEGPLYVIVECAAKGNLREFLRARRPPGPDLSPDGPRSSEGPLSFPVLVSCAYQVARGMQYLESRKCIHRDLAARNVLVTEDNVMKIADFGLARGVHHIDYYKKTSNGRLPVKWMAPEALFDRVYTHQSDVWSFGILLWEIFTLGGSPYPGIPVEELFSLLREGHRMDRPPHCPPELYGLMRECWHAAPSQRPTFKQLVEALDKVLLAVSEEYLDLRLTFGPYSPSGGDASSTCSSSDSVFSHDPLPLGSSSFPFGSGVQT
- run-description: HTRF KinEASE-TK kinase assay, FGFR4
- Assay type: biochemical
- condition-summary: read-out: % FGFR4 Remaining activity vs DMSO (1 μM, 3 h)
observation-type: remaining activity at 1 µM

Before answering, review these 10 worked examples.
                                   compound  reported_measurement
0  C[S@+]([O-])c1c(F)c(F)c(F)c(F)c1C(=O)N1CC(n2nc(-c3ccc(Oc4ccccc4)cc3)c3c(N)ncnc32)C1 (racemic)                 > 90%
1  COCCOc1ccc(Nc2ncc(F)c(Nc3cccc(NC(=O)c4c(F)c(F)c(F)c(F)c4[S@+](C)[O-])c3)n2)cc1 (stereo in doubt)                 < 50%
2  COCCOc1ccc(Nc2ncc(F)c(Nc3cccc(NC(=O)c4c(F)c(F)c(F)c(F)c4S(C)(=O)=O)c3)n2)cc1                 < 50%
3  COCCOc1ccc(Nc2ncc(F)c(Nc3cccc(NC(=O)c4c(F)c(F)c(F)c(F)c4S(=O)(=O)N(C)C)c3)n2)cc1                 < 50%
4  Nc1ncnc2c1c(-c1ccc(Oc3ccccc3)cc1)nn2C1CCN(S(=O)(=O)c2c(F)c(F)c(F)c(F)c2OC(F)F)C1 (stereo in doubt)                 < 50%
5  CS(=O)(=O)c1c(F)c(F)c(F)c(F)c1C(=O)N1CC(n2nc(-c3ccc(Oc4ccccc4)cc3)c3c(N)ncnc32)C1             50 to 90%
6  CS(=O)(=O)c1c(F)c(F)c(F)c(F)c1CNCCNc1ncnc2[nH]ccc12                 > 90%
7  CS(=O)(=O)c1c(F)c(F)c(F)c(F)c1C(=O)NCCCn1nc(-c2ccc(Oc3ccccc3)cc2)c2c(N)ncnc21                 < 50%
8  C[S@+]([O-])c1c(F)c(F)c(F)c(F)c1C(=O)Nc1ncnc2[nH]ccc12 (racemic)             50 to 90%
9  COCCOc1ccc(Nc2ncc(F)c(Nc3cccc(NS(=O)(=O)c4c(F)c(F)c(F)c(F)c4OC(F)F)c3)n2)cc1                 < 50%

Query block: State its remaining activity at 1 µM on FGFR4 (Homo sapiens (Human)): CS(=O)(=O)c1c(F)c(F)c(F)c(F)c1C(=O)n1ccc2c(N)ncnc21
Result block: 50 to 90%

Query block: What do we get for CS(=O)(=O)c1c(F)c(F)c(F)c(F)c1C(=O)NCCNc1ncnc2[nH]ccc12 ?
Result block: > 90%

Query block: Follow-up item: COCCOc1ccc(Nc2ncc(F)c(Nc3cccc(NS(=O)(=O)c4c(F)c(F)c(F)c(F)c4CF)c3)n2)cc1
Result block: < 50%

Query block: Field entry: COc1c(F)c(F)c(F)c(F)c1S(=O)(=O)n1nc(-c2ccc(Oc3ccccc3)cc2)c2c(N)ncnc21
Result block: > 90%

Query block: Follow-up entry: NS(=O)(=O)c1c(F)c(F)c(F)c(F)c1C(=O)NCCNc1ncnc2[nH]ccc12
Result block: > 90%

Query block: // query: CN(C)S(=O)(=O)c1c(F)c(F)c(F)c(F)c1C(=O)N1CC(n2nc(-c3ccc(Oc4ccccc4)cc3)c3c(N)ncnc32)C1
Result block: 50 to 90%

Query block: Cool, now COCCOc1ccc(Nc2ncc(F)c(NCCCNS(=O)(=O)c3c(F)c(F)c(F)c(F)c3C(F)F)n2)cc1
Result block: > 90%
